Biological target: Alpha-1-acid glycoprotein 1 (Homo sapiens)
Sequence (P02763 whole entry): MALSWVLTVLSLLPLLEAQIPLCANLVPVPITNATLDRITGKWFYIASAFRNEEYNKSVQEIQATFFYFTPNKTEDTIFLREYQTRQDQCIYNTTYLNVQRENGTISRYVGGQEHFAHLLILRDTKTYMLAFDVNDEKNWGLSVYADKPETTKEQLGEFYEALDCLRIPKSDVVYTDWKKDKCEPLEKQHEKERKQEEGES
Assay: Binding affinity to human alpha1-acid glycoprotein at 30 uM
property.measured: Activity (µM)
Provide only the numeric value, understood in µM.

Incoming: What value of Activity has been recorded for this entry: O=C1CN=C(c2ccccc2)c2cc(Cl)ccc2N1 [NORDAZEPAM]
Outgoing: 9

Incoming: What value of Activity has been recorded for this entry: CN1C(=O)CN=C(c2ccccc2)c2cc(Cl)ccc21 [DIAZEPAM]
Outgoing: 10

Incoming: What value of Activity has been recorded for this entry: "CN1C(=O)C(C)(C)N=C(c2ccccc2)c2cc(Cl)ccc21"
Outgoing: 14

Incoming: What value of Activity has been recorded for this entry: "CC1(C)N=C(c2ccccc2)c2cc(Cl)ccc2NC1=O"
Outgoing: 13

FYI, the data here is from ChEMBL document CHEMBL1143698.
